# assay.explanation: Half life assessed as decomposition into amines and unsaturated ketones at 250 uM in 50 mM Tris/maleate pH 7.5 buffer by HPLC method
# Assay type: physicochemical
# test.parameters: buffer, pH 7.5, 250 µM
attribute.measured: t1/2

In plain terms, `COc1cccc(C(=O)CCN2CCCCC2)c1.Cl` has a documented t1/2 of Stable

In plain terms, `Cl.O=C(CCN1CCCCC1)c1ccccc1` has a documented t1/2 of Stable

In plain terms, CCC(CN(C)C)C(=O)c1ccccc1.Cl (stereo not given) has a documented t1/2 of Stable

In plain terms, CN(C)CC1(C)Cc2ccccc2C1=O.Cl (stereo not given) has a documented t1/2 of Stable

Continuing:
In plain terms, `COc1cccc(C(=O)CCN(C)C)c1.Cl` has a documented t1/2 of Stable

---

# test.system: UniProt P0AE18
# Sequence (P0AE18 whole entry): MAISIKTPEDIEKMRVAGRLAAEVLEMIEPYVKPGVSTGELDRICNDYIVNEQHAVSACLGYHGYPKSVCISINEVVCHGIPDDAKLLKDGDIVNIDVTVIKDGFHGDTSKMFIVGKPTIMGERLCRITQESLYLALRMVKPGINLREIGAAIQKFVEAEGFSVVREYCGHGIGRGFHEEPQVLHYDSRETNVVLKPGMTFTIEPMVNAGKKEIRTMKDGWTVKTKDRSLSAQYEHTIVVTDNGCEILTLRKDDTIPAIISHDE
# assay.explanation: Inhibition of C-terminal poly-His-tagged Escherichia coli MetAP expressed in Escherichia coli BL21(DE3) incubated for 30 mins before MGMM substrate addition by fluorescence assay
# test.parameters: read-out: IC50
attribute.measured: IC50 (µM)

In plain terms, `C=C1Cc2cc(C)ccc2C1=O` has a documented IC50 of 0.4

In plain terms, Cl.O=C1c2ccccc2CC1CN1CCCCC1 (stereo not given) has a documented IC50 of 3.1

In plain terms, Cl.O=C1c2ccccc2CCC1CN1CCCCC1 (stereo not given) has a documented IC50 of 9.1

In plain terms, CN(C)CC1Cc2cc(Cl)ccc2C1=O.Cl (stereo not given) has a documented IC50 of 0.84

In plain terms, CN(C)CC1Cc2c(cccc2C(F)(F)F)C1=O.Cl (stereo not given) has a documented IC50 of 7

A = COc1cc2c(cc1OC)C(=O)C(CN(C)C)C2.Cl (stereo not given)
B = C=C1Cc2cc(OC)c(OC)cc2C1=O
C = Cc1cc(C)c2c(c1)C(=O)C(CN(C)C)CC2.Cl (stereo not given)
D = C=C1Cc2cc(Br)ccc2C1=O
[in] hey, can you rank those compounds up there by IC50? biggest number first please As an answer, provide the labels arranged in the order called for.
[out] C, A, B, D

---

# System: Escherichia coli
# assay.explanation: Antimicrobial activity against Escherichia coli BL21(DE3) assessed as inhibition of bacterial growth at 200 uM incubated at 37 degC for 7 hrs
# Assay type: functional
Active and inactive are the calls of the source. The rule behind the calls is not given here.
attribute.measured: inhibition

Here are 6 compounds together with their reported answers.
Observed inhibition on Escherichia coli, entry `Cl.O=C(CCN1CCCCC1)c1ccccc1` , equals inactive

Observed inhibition on Escherichia coli, entry `CN(C)CCC(=O)c1ccccc1.Cl` , equals inactive

Observed inhibition on Escherichia coli, entry `COc1ccc(C(=O)CCN2CCCCC2)cc1.Cl` , equals inactive

Observed inhibition on Escherichia coli, entry CCC(CN(C)C)C(=O)c1ccccc1.Cl (stereo not drawn) , equals inactive

Observed inhibition on Escherichia coli, entry `COc1cccc(C(=O)CCN(C)C)c1.Cl` , equals inactive

Observed inhibition on Escherichia coli, entry `COc1ccc(C(=O)CCN(C)C)cc1.Cl` , equals inactive

Continuing:
Observed inhibition on Escherichia coli, entry `COc1cccc(C(=O)CCN2CCCCC2)c1.Cl` , equals inactive

Observed inhibition on Escherichia coli, entry CN(C)CC1(C)Cc2ccccc2C1=O.Cl (stereo not drawn) , equals inactive
